Entries and their KD Steady State
- TARGET_OR_SYSTEM: T1, HSP70 (human HSP70; the antigen of the binning, humanization and variant binding assays) (human, UniProt P0DMV8 1-641, limits assumed)
- T1 construct: also called hu HSP70
- T1 sequence (P0DMV8 whole entry, change not shown): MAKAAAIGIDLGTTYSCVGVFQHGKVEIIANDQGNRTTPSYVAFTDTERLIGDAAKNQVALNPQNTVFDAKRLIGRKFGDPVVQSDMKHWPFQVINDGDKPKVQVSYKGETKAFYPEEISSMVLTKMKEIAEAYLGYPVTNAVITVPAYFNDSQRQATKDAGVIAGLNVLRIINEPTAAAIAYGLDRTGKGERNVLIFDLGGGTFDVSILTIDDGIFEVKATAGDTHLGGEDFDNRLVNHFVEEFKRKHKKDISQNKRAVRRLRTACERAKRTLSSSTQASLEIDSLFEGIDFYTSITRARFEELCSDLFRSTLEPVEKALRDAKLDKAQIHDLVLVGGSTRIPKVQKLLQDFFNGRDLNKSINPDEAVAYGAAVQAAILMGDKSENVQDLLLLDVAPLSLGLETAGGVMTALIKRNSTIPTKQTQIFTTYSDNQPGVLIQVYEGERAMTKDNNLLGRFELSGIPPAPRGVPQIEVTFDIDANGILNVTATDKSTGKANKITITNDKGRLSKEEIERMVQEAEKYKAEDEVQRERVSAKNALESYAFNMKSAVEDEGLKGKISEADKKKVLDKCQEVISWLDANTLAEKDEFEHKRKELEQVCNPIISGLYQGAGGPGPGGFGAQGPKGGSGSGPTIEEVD
- PROCEDURE_TEXT: BLI, anti-human Fc capture, steady state

- BINDER: "h77A-1.94 (antibody, V domains shown, captured by anti-human Fc) VH: QIQLVQSGAEVKKPGASVKVSCKASGYTFTNYGMNWVRQAPGQGLEWMGWINTYTGEPTYTDDFKGRFTFTTDTSTSTAYMELRSLRSDDTAVYFCARYDHAMDYWGQGTLVTVSS VL: EIVLTQSPDSLAVSLGERATINCKSSQSLFNSGTRKNYLAWYQQKAGQSPKLIIYWTSTRESGVPDRFSASGSGTDFTLSIDRLQAEDVAVYYCKQSYTLYTFGGGTKVEIK"
  KD Steady State, nM: 1.3
- BINDER: "h77A-1.30 (antibody, V domains shown, captured by anti-human Fc) VH: QIQLVQSGAEVKKPGASVKVSCKASGYTFTNYGMNWVRQAPGQGLEWMGWINTYTGEPTYADDFKGRFTFTTDTSTSTAYMEVRSLRSDDTAVYFCARYDHAMDYWGQGTLVTVSS VL: EIVLTQSPDSLAVSLGERATINCKSSQSLLNSGTRKNYLAWYQQKAGQSPKLIIYWTSTRESGVPDRFSGSGSGTDFTLTIDSLQAEDVAVYYCKQSYTLYTFGGGTKVEIK"
  KD Steady State, nM: 0.86
